The values you see were collected from BindingDB's records for doi:10.1021/jm800245z.

- Target entity: Gag-Pol polyprotein (Human immunodeficiency virus type 1 group M subtype B (isolate HXB2))
- Test description: Microtiter Plate Assay for Strand Transfer
- Setup conditions: pH 7.8; 37 °C
pIC50: −log10 of the molar value.
Parameter: pIC50

## Input # input compound: CNC(=O)c1nc(C(C)(C)NC(=O)C(=O)N(C)C)n(C)c(=O)c1O ; wanted: its pIC50
## Output < 5.30
